The following molecules are shown together with reported pEC50 values.
System: Human immunodeficiency virus 1
Experiment: Antiviral activity against rilpivirine resistant HIV1 harboring reverse transcriptase E138K mutant assessed as inhibition of viral infection in human TZM-bl cells measured after 1 day by luciferase reporter gene assay
Format: functional, organism-based
Conditions: Human immunodeficiency virus 1, TZM-bl, 24 h
When answering, recall that pEC50 equals minus log10 of the concentration in mol/L, and write that number alone.

For orientation, consider the following solved cases.
COCc1cc(N)c(Nc2ccc(C#N)cc2)cc1Oc1c(C)cc(CCC#N)cc1C ... 7.88
CCOCc1cc(N)c(Nc2ccc(C#N)cc2)cc1Oc1c(C)cc(CCC#N)cc1C ... 7.05
CNC(=O)OCc1cc(N)c(Nc2ccc(C#N)cc2)cc1Oc1c(C)cc(CCC#N)cc1C ... 7.03

// lookup pEC50 for `COC(=O)c1cc(N)c(Nc2ccc(C#N)cc2)cc1Oc1c(Br)cc(CCC#N)cc1OC`
8.00

// lookup pEC50 for `CCNC(=O)c1cc(N)c(Nc2ccc(C#N)cc2)cc1Oc1c(C)cc(CCC#N)cc1C`
8.07

The origin of these recorded values is ChEMBL document CHEMBL3808367.
